MEASURED_TARGET: T1, PUF4 RNA-binding domain (Saccharomyces cerevisiae, UniProt P25339 537-888)
T1 sequence: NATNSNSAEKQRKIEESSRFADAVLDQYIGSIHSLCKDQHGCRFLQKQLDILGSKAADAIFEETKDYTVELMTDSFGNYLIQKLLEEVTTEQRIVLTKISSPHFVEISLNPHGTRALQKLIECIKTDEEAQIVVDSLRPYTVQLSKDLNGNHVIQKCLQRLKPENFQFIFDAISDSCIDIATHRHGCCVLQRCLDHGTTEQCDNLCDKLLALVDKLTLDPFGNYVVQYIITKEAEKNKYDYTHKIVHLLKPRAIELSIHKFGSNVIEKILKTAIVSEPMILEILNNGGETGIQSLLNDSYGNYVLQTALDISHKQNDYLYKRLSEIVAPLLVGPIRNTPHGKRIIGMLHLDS
TEST_METHOD_NOTES: Mg; RNA-MaP; 20 mM Na-HEPES pH 7.4, 30 mM KOAc, 0.75 mM MgCl2, 0.1% Tween-20, 5% glycerol, 0.1 mg/mL BSA, 2 mM DTT; 25 C; 0.0125-409.6 nM protein
DETAILS: tags: N-His6-TEV cleaved; C-SNAP kept, Cy3B-labelled; label: tethered on chip by stalled RNA polymerase
EXPERIMENTAL_READOUT: Kd (nM)
Record the value in nM, omitting the unit from your answer.

BINDER	Kd / nM
Ia_S2_P3E.1_K3.1_C3.1_H3.1_[A4C]_A3.1_F3.1_T3.1 (ssRNA) RNA: UUUGAUUAAUAUGAUAUCGUUCUUUCUUGUCUAUAUUCUUUCUCGAUAUCAUAUUAAUCUUU	184
Ic_S4_P5E.1_K5.1_C5.1_H5.1_A5.1_[A7G]_F5.1_[T8G]_[A10T]_T5.1 (ssRNA) RNA: UUUGACAACUGAUCGUUCUUUCUUGUAUUGGUUUUCUUUCUCGAUCAGUUGUCUUU	881
Ic_S4_P3E.1_K3.1_C3.1_H3.1_A3.1_[A6C]_F3.1_[T7G]_[A8T]_T3.1 (ssRNA) RNA: UUUGACAACUGAUCGUUCUUUCUUGUAUCGUUUCUUUCUCGAUCAGUUGUCUUU	178
Ic_S4_P4E.1_K4.1_C4.1_H4.1_A4.1_[T5C]_[T7G]_F4.1_[A9C]_T4.1 (ssRNA) RNA: UUUGACAACUGAUCGUUCUUUCUUGUACAGUCUUCUUUCUCGAUCAGUUGUCUUU	22.9
UCUCUUUGUAUAUUAUUCUCUU (ssRNA) [Ie_S1_P4E.1_K4.1_C4.1_H4.1_A4.1_F4.1_[+9T]_T4.1]	0.531

Kd recorded for this binder, Id_ii_S2_P3E.2_K3.1_C3.2_[C-2A]_[T-1A]_H3.1_A3.1_F3.1_T3.2_[A10G] (ssRNA) RNA: UUUGAUUAAUAUGAUAUCGUUCUUUCUAAUGUAUAUAUGUUCUUUCUCGAUAUCAUAUUAAUCUUU , is 7.2
